Values were extracted from patent US20080020978A1.

# Assay System: T1, CGRP1 receptor (CRLR/RAMP1 complex) of human neuroblastoma SK-N-MC cells (human, UniProt Q16602 23-461; O60894 27-148)
# T1 construct: whole, on cells
# T1 sequence (Q16602 23-461, chain 1 of 2): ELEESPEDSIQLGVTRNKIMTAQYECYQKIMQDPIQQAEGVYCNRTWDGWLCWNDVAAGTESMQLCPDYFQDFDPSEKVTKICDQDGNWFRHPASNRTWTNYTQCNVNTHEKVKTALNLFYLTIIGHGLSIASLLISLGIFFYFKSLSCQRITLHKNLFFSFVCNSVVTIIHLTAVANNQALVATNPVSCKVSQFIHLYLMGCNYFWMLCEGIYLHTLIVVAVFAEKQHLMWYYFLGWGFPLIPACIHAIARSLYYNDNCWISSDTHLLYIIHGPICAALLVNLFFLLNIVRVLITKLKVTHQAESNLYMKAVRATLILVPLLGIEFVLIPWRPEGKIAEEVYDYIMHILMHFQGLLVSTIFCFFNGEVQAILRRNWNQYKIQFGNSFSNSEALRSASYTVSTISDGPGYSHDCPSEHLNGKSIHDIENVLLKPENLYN
# T1 sequence (O60894 27-148, chain 2 of 2): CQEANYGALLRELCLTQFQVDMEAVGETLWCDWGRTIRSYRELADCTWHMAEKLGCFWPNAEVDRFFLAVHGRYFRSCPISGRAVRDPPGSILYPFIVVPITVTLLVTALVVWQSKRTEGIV
# Test Summary: 125I-hαCGRP competition, SK-N-MC membranes
Recorded Metric: pKi
Hey, just a heads up that pKi is the negative log base 10 of the concentration in molar.

[in] Given the entry Ac-WVTHRLAGLLSRSGGVVCNNFVPTDVGPFAF-NH2 [SEQ ID NO 682] , report its measured pKi.
[out] 9.47

[in] Could you tell me which pKi is on file for WVTHXLAGLLSXSGGVVXKNFVPTDVGXFAF (Ac-WVTH[Cit]LAGLLS[Cit]SGGVV[hArg]K(20 KPEGald)NFVPTDVG[Oic]FAF-NH2) [SEQ ID NO 172] ?
[out] 8.90

[in] Tell me the measured pKi of WVTHXLAGLLSXSGGVVXKNFVPTDVGPFAF (Ac-WVTH[Cit]LAGLLS[Cit]SGGVV[hArg]KNFVPTDVGPFAF-NH2) [SEQ ID NO 739] , please.
[out] 9.28

[in] Bench note: what pKi did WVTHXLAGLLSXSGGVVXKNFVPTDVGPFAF (Ac-WVTH[Cit]LAGLLS[Cit]SGGVV[hArg]K(20 K PEGald)NFVPTDVGPFAF-NH2) [SEQ ID NO 153] show?
[out] 8.75
